The reader will find reported relative integration efficiency (log2) values listed item by item below.
Tested on: VchCAST RNA-guided transposition machinery (E. coli BL21(DE3) host, lacZ target)
EXPERIMENT_NOTES: relative integration efficiency (T-RL orientation) vs wild-type transposon end (log2 (normalized fold change)); transposon end mutated: right end (5 bp flank + 75 bp right end); higher = more efficient transposition

SEQUENCE_STRING | relative integration efficiency (log2)
ACATTTGTCGATACAACCATAAAATGATAATTCACCCATCAATTGATAATTATCACACCCCAATTTAACTATAACGCTCTGATCATAGTCAGACCAACATTGCTACGACCCGTATTCGCACCGACAC | -3.3
ACATTTGTTGATACAACCATAAAATGATAATTAATAATTATCACCCATAAATTGATAATTATCAACAAACGCCCGGTCGCGGTACTCTGATCATAGTCAGACCAACATTGCTACGACCCGTATTCGC | -3.56
ACATTTGTTGATACAACCATAAGTTGATATTTTCACCCATAAATTGATATTGCTCACAACCATAAAGTGATATTTACTCTGATCATAGTCAGACCAACATTGCTACGACCCGTATTCGCACCGACAC | -0.377
ACATTTGTTGATACAACCATAAAATGATAATTACACCCATAAATTGATAATTTCACACCCATAAATTGATATTGCCTCTGATCATAGTCAGACCAACATTGCTACGACCCGTATTCGCACCGACACT | -0.767
ACATTTGTTGATACAACCATATATTGATATCTCCAACCATAAAGTGATATTTATCACAACCATAAAATGATAATTACTCTGATCATAGTCAGACCAACATTGCTACGACCCGTATTCGCACCGACAC | -0.716

* * *

Tested on: VchCAST RNA-guided transposition machinery (E. coli BL21(DE3) host, lacZ target)
EXPERIMENT_NOTES: relative integration efficiency (T-RL orientation) vs wild-type transposon end (log2 (normalized fold change)); transposon end mutated: right end (5 bp flank + 75 bp right end); higher = more efficient transposition
Classify as follows. Reported relative integration efficiency (log2) greater than or equal to -0.6: t. Reported relative integration efficiency (log2) below: f.

SEQUENCE_STRING | LABEL_VALUE
ACATTTGATGATACAACCATATAATGATAATAACACCCATAAAATGATAATTATCACACCCAATTTAACTATAACGCTCTGATCATAGTCAGACCAACATTGCTACGACCCGTATTCGCACCGACAC | f
ACATTTGTTGATACAACCATAAAATCATAATTCACCCCTAAATTGATAATTATCACACCCACATTTAACTATAACGCTCTGATCATAGTCAGACCAACATTGCTACGACCCGTATTCGCACCGACAC | f
ACATTTGTTGATACAACCATAAAATGATAATTACACCCATAAATTGATAATTATCACACCCATAAATTGATATTGCCTCTGATCATAGTCAACCATAAAATGATAATTACAGACCAAGCACCGACAC | t
ACATTTGTTGATACAACCATAAAATGTAAATTACACCCATAAATTGATAATTATCACACCCATAAATTGATATTGCCTCTGATCATAGTCAGACCAACATTGCTACGACCCGTATTCGCACCGACAC | f

* * *

The reader will find reported relative integration efficiency (log2) values listed item by item below.
Tested on: VchCAST RNA-guided transposition machinery (E. coli BL21(DE3) host, lacZ target)
EXPERIMENT_NOTES: relative integration efficiency (T-RL orientation) vs wild-type transposon end (log2 (normalized fold change)); transposon end mutated: right end (5 bp flank + 75 bp right end); higher = more efficient transposition

SEQUENCE_STRING | relative integration efficiency (log2)
ACATTTGTTGATACAACCATAAAATGATAATTACACCCATAAATTGATAATTATCCAACCCATAAATTGATATTGCCTCTGATCATAGTCAGACCAACATTGCTACGACCCGTATTCGCACCGACAC | -0.362
ACATTTGTTGATACAACCATATATTGATATCTCCACCCATAAATTGATAATTATCACAACCATAAAATGATAATTACTCTGATCATAGTCAGACCAACATTGCTACGACCCGTATTCGCACCGACAC | -0.253
ACATTTGGTGATACAACCATATAATGATAATAACACCCATAAAATGATAATTATCACACCCAATTTAACTATAACGCTCTGATCATAGTCAGACCAACATTGCTACGACCCGTATTCGCACCGACAC | -6.35
ACATTTGTTGATACAACCATAAAATGATAATTACACCCATAAATTGATAAGGCGACACAAACGCCCGGTCGCGGTAAGAGGATCATAGTCAGACCAACATTGCTACGACCCGTATTCGCACCGACAC | -0.882
ACATTTGATGATAGAACCATTTAATGATAATAACACCCATAAAATGATAATTATCACACCCAATTTAACTATAACGCTCTGATCATAGTCAGACCAACATTGCTACGACCCGTATTCGCACCGACAC | -2.75

* * *

The reader will find reported relative integration efficiency (log2) values listed item by item below.
System: VchCAST RNA-guided transposition machinery (E. coli BL21(DE3) host, lacZ target)
EXPERIMENT_NOTES: relative integration efficiency (T-RL orientation) vs wild-type transposon end (log2 (normalized fold change)); transposon end mutated: right end (5 bp flank + 75 bp right end); higher = more efficient transposition

SEQUENCE_STRING | SYSTEM_TESTED | relative integration efficiency (log2)
ACATTTGTTGATACAACCATAAAATGATAATTACACCCATAAATTGATAATTATACACCCCATAAATTGATATTGCCTCTGATCATAGTCAGACCAACATTGCTACGACCCGTATTCGCACCGACAC | VchCAST RNA-guided transposition machinery (E. coli BL21(DE3) host, lacZ target) | -1.07
ACATTTGTTGATACACCCATAAATTGATAATTACAACCATAAAATGATAATTATCACACCCATAAATTGATATTGCCTCTGATCATAGTCAGACCAACATTGCTACGACCCGTATTCGCACCGACAC | VchCAST RNA-guided transposition machinery (E. coli BL21(DE3) host, lacZ target) | -0.475
ACATTTGTGGATACAACCATAAAATGATAATTACACCCATAAATTGATCATTATCACCCCCAATTTAACTATAACGCTCTGATCATAGTCAGACCAACATTGCTACGACCCGTATTCGCACCGACAC | VchCAST RNA-guided transposition machinery (E. coli BL21(DE3) host, lacZ target) | -1.27
ACATTTGTTGATACAACCATAAAATGATAATTACACCCATAAATTGATAATTATCACACCCATAAATTGATATTGCCTCTTAACACCCGTATTACTTCATAATCGTTTGTAATTCAAGCACCGACAC | VchCAST RNA-guided transposition machinery (E. coli BL21(DE3) host, lacZ target) | -0.169
ACCGGGGTTGATACAACCATAAAATGATAATTACACCCATAAATTGATAATTATCACACCCATAAATTGATATTGCCTCTGATCATAGTCAGACCAACATTGCTACGACCCGTATTCGCACCGACAC | VchCAST RNA-guided transposition machinery (E. coli BL21(DE3) host, lacZ target) | -6.81
ACATTTGTTGATACAACCATAAAATGATAATTAATAATTATTTATAATCAGCAACTTAACCACACCCATAAATTGATAATTATCACACCCATAAATTGATATTGCCTCTGATCATAGTCAGACCAAC | VchCAST RNA-guided transposition machinery (E. coli BL21(DE3) host, lacZ target) | -4.19
ACATTTGTTGATACACCCATAAATTGATAATTACACCCATAAATTGATATTGCTCACACCCATAAATTGATAATTACTCTGATCATAGTCAGACCAACATTGCTACGACCCGTATTCGCACCGACAC | VchCAST RNA-guided transposition machinery (E. coli BL21(DE3) host, lacZ target) | -0.735
ACATTTGTTGATACCACCATCAAATGGTAATTACACCCATAAATTGATAATTATCACACCCAATTTAACTATAACGCTCTGATCATAGTCAGACCAACATTGCTACGACCCGTATTCGCACCGACAC | VchCAST RNA-guided transposition machinery (E. coli BL21(DE3) host, lacZ target) | -2.79
ACATTTGTTGATACAACCATTAAATGGTAATTCCACCCATAAATTGATAATTATCACACCCAATTTAACTATAACGCTCTGATCATAGTCAGACCAACATTGCTACGACCCGTATTCGCACCGACAC | VchCAST RNA-guided transposition machinery (E. coli BL21(DE3) host, lacZ target) | -1.26
ACATTTGTTGATACAACCATAAAATGATAATTACACCCATAAATTGATCATTATCACCCCCAATTTAACTATAACGCTCTGATCATAGTCAGACCAACATTGCTACGACCCGTATTCGCACCGACAC | VchCAST RNA-guided transposition machinery (E. coli BL21(DE3) host, lacZ target) | -1.35
ACATTTGTTGATACAACCATAAAATGATAATTACAACCATAAAATGATAATTATCACACCCATAAATTGATATTGCCTCTGATCATAGTCAGACCAACATTGCTACGACCCGTATTCGCACCGACAC | VchCAST RNA-guided transposition machinery (E. coli BL21(DE3) host, lacZ target) | -0.0716
ACATTTGTTGATACAACCATAAAATGAGCCGTACACCCATAAATTGATAATTATCACACCCATAAATTGATATTGCCTCTGATCATAGTCAGACCAACATTGCTACGACCCGTATTCGCACCGACAC | VchCAST RNA-guided transposition machinery (E. coli BL21(DE3) host, lacZ target) | -0.359
ACATTTGTTGATACAACCATAAAAGGATAATTACCCCCATCAATTGATAATTATCCCACCCCATTTAACTATAACGCTCTGATCATAGTCAGACCAACATTGCTACGACCCGTATTCGCACCGACAC | VchCAST RNA-guided transposition machinery (E. coli BL21(DE3) host, lacZ target) | -2.87
ACATTTGTTGATACAACCATATATTGATATCTCCAACCATAAAGTGATATTTATCACACCCATAAATTGATATTGCCTCTGATCATAGTCAGACCAACATTGCTACGACCCGTATTCGCACCGACAC | VchCAST RNA-guided transposition machinery (E. coli BL21(DE3) host, lacZ target) | -0.42
ACATTTGTTGATACAACCATATATTGATATCTCCAACCATATATTGATATCTCTCACACCCATAAATTGATATTGCCTCTGATCATAGTCAGACCAACATTGCTACGACCCGTATTCGCACCGACAC | VchCAST RNA-guided transposition machinery (E. coli BL21(DE3) host, lacZ target) | -0.682
ACATTTGTTGATACATGGTTAAAATGATAATTACACCCATAAATTGATAATTATCACACCCATAAATTGATATTGCCTCTGATCATAGTCAGACCAACATTGCTACGACCCGTATTCGCACCGACAC | VchCAST RNA-guided transposition machinery (E. coli BL21(DE3) host, lacZ target) | -1.62
ACATTTGTTGATACAACCATAAAAGTATAATTACACCCATAAATTGATAATTATCACACCCATAAATTGATATTGCCTCTGATCATAGTCAGACCAACATTGCTACGACCCGTATTCGCACCGACAC | VchCAST RNA-guided transposition machinery (E. coli BL21(DE3) host, lacZ target) | -0.954
ACATTTGTTGATACAACCATAAAGTGATATTTACAACCATAAAGTGATATTTATCACAACCATAAAATGATAATTACTCTGATCATAGTCAGACCAACATTGCTACGACCCGTATTCGCACCGACAC | VchCAST RNA-guided transposition machinery (E. coli BL21(DE3) host, lacZ target) | 0.0579
ACATTTGTGGATACAACCCTAAAATGATAATTACACCCATAAATGGATCATTATCACACCCAATTTAACTATAACGCTCTGATCATAGTCAGACCAACATTGCTACGACCCGTATTCGCACCGACAC | VchCAST RNA-guided transposition machinery (E. coli BL21(DE3) host, lacZ target) | -3.94
ACATTTGTTGATACAACCATAAAATGATAATTCAACCCATAAATTGATAATTATCACACCCATAAATTGATATTGCCTCTGATCATAGTCAGACCAACATTGCTACGACCCGTATTCGCACCGACAC | VchCAST RNA-guided transposition machinery (E. coli BL21(DE3) host, lacZ target) | 0.0959

Data credit: the supplement of paper PMC10201428
